// provenance: the supplement of paper PMC6555819

Test system: RARb homodimer (NR concentration 270 nM)
procedure text: PBM binding z-score (relative to random genomic background probes); higher = stronger binding; sequences stand for … in GC…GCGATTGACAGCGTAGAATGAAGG
measurement label: PBM binding z-score
Note: the reply should be a number with no unit written.

Solved cases (3 shown):
Lookup: I'd like to know its PBM binding z-score. The sequence in question is TCATAAAGGTAAAGGTGAAAGTCGAACGATATGA
Found: 1.86

Lookup: I'd like to know its PBM binding z-score. The sequence in question is CGTCAAAGTTCAAGGTAACGAAACAGAAAGCAGC
Found: 3.67

Lookup: I'd like to know its PBM binding z-score. The sequence in question is ATCTCTAGGTAAGAGTTCAGTGAATCCCGAGGAT
Found: 1.91

***
Lookup: I'd like to know its PBM binding z-score. The sequence in question is CAAACTAGGTCAACGGTCAAAGTCGAGCCAACCA
Found: 3.76

Lookup: I'd like to know its PBM binding z-score. The sequence in question is CCTACTGGGCCAAACGTCATTGATTCCAATGCTC
Found: -0.184
